All values here come from the OligoGym collection.

# run.parameters: siRNA; further: test system not given here
HELM strings list units from the 5' end as sugar, base in round brackets, then linkage (d deoxyribose, r ribose, m 2'-O-methyl, p phosphodiester). Strings are as the collection lists them, not checked against the first reports. ss, as = sense and antisense strand; [fl2r] = 2'-fluoro
# target mRNA knockdown values compiled below
measure.name: target mRNA knockdown (%)

INSERT INTO measurements (substance, unit_info, reported_measurement) VALUES
  ('RNA1{r(A)p.r(G)p.r(G)p.r(A)p.r(C)p.r(G)p.r(G)p.m(U)p.r(A)p.r(C)p.r(U)p.r(U)p.m(U)p.r(C)p.r(G)p.m(A)p.r(A)p.r(A)p.r(G)p.r(T)p.r(T)}|RNA2{r(C)p.r(U)p.r(U)p.r(U)p.r(C)p.r(G)p.r(A)p.r(A)p.r(A)p.r(G)p.m(U)p.r(A)p.r(C)p.r(C)p.r(G)p.r(U)p.r(C)p.r(C)p.r(U)p.r(T)p.r(T)}$$$RNA1{StrandType:ss}|RNA2{StrandType:as}$', '%', 44),
  ('RNA1{r(A)p.r(A)p.r(G)p.r(G)p.r(A)p.r(C)p.r(C)p.[fl2r](U)p.r(A)p.r(G)p.r(A)p.r(G)p.r(G)p.r(A)p.r(G)p.r(U)p.r(C)p.r(A)p.r(C)p.r(T)p.r(T)}|RNA2{r(G)p.r(U)p.r(G)p.r(A)p.r(C)p.r(U)p.r(C)p.r(C)p.r(U)p.r(C)p.[fl2r](U)p.r(A)p.r(G)p.r(G)p.r(U)p.r(C)p.r(C)p.r(U)p.r(U)p.r(T)p.r(T)}$$$RNA1{StrandType:ss}|RNA2{StrandType:as}$', '%', 88),
  ('RNA1{r(G)p.r(G)p.r(U)p.r(A)p.r(G)p.r(G)p.r(G)p.r(U)p.r(U)p.r(G)p.r(A)p.r(A)p.r(G)p.r(A)p.r(G)p.r(A)p.r(C)p.r(U)p.r(U)p.r(T)p.r(T)}|RNA2{r(A)p.r(A)p.r(G)p.r(U)p.r(C)p.r(U)p.r(C)p.r(U)p.r(U)p.r(C)p.r(A)p.r(A)p.r(C)p.r(C)p.r(C)p.m(U)p.r(A)p.r(C)p.r(C)p.r(T)p.r(T)}$$$RNA1{StrandType:ss}|RNA2{StrandType:as}$', '%', 95);
